Where these numbers come from: the Immune Epitope Database (IEDB)

# test.system: HLA-B*07:02
# assay.notes: IEDB peptide-MHC binding, purified MHC/competitive/radioactivity; filed as Kd, often an IC50 or EC50 that approximates it; bounds were set here for any values at or beyond the usual limits of such assays
# condition.notes: source organism: Mammarenavirus brazilense
measurement.type: pKd
On this scale, pKd is minus log10 of a concentration expressed in M (mol/L).

Query: Bench note: what pKd did "TPTQLAETI" show?
Result: 5.74

###

# test.system: HLA-B*40:01
# assay.notes: IEDB peptide-MHC binding, purified MHC/direct/fluorescence; filed as Kd, often an IC50 or EC50 that approximates it; bounds were set here for any values at or beyond the usual limits of such assays
# condition.notes: source organism: Giardia lamblia ATCC 50803
measurement.type: Kd

RENQVAVVR :: ≥ 20 µM

Query: Bench note: what Kd did "EFFDTEPQL" show?
Result: 2.77 µM

Query: Bench note: what Kd did "KLLQICMWF" show?
Result: ≥ 20 µM

Query: Bench note: what Kd did "PTKCGENLY" show?
Result: ≥ 20 µM

Query: Bench note: what Kd did "KTPWDRFCK" show?
Result: ≥ 20 µM

###

# test.system: HLA-A*24:02
# assay.notes: IEDB peptide-MHC binding, purified MHC/direct/fluorescence; filed as Kd, often an IC50 or EC50 that approximates it; bounds were set here for any values at or beyond the usual limits of such assays
# condition.notes: source organism: H9N2 subtype Influenza A virus (A/swine/Korea/S81/2004(H9N2))
measurement.type: Kd

Query: Bench note: what Kd did "KAVRGDLNF" show?
Result: ≥ 20 µM

###

# test.system: HLA-B*58:01
# assay.notes: IEDB peptide-MHC binding, purified MHC/competitive/fluorescence; filed as Kd, often an IC50 or EC50 that approximates it; bounds were set here for any values at or beyond the usual limits of such assays
# condition.notes: source organism: Escherichia coli O139:H28 str. E24377A
measurement.type: Kd (nM)
I only need the number, in nM, no unit after it.

Query: Bench note: what Kd did "ITAALAWSL" show?
Result: 672

###

# test.system: HLA-B*08:01
# assay.notes: IEDB peptide-MHC binding, purified MHC/competitive/fluorescence; bounds were set here for any values at or beyond the usual limits of such assays
# condition.notes: source organism: Homo sapiens
measurement.type: IC50

Query: Bench note: what IC50 did "ILNRETLLDFV" show?
Result: ≥ 20 µM

###

# test.system: HLA-B*18:01
# assay.notes: IEDB peptide-MHC binding, purified MHC/competitive/radioactivity; filed as Kd, often an IC50 or EC50 that approximates it; bounds were set here for any values at or beyond the usual limits of such assays
# condition.notes: source organism: SARS coronavirus Tor2
measurement.type: Kd (µM)
I only need the number, in µM, no unit after it.

Use these answered entries as a reference point.
REVSTAAVT :: 16.9
EEAALCTFL :: 11.8
QELYSPLFL :: 5.57
SELAKGVAL :: 1.11
REVLSDREL :: 7.33
EEGNLLDSYF :: 10.7

Query: Bench note: what Kd did "DEFIQRYKL" show?
Result: 0.0479

Query: Bench note: what Kd did "VEAVMYMGTL" show?
Result: 7.24

Query: Bench note: what Kd did "FEIKSAKKF" show?
Result: 1.08
